- System: HSC2 (primary human Schwann cells)
- assay remarks: % inhibition of CellTiter-Glo viability at highest tested concentration (72 h), relative to DMSO and benzethonium chloride controls; higher = more inhibition
quantity: % inhibition

Would you please look over these solved cases?
                                   compound      quantity  reported_measurement
0  CC(=O)Nc1cccc(-n2c(=O)n(C3CC3)c(=O)c3c(Nc4ccc(I)cc4F)n(C)c(=O)c(C)c32)c1 [Trametinib] (max concentration tested 250 nM)  % inhibition                 66.4%
1  C[C@@]1(C(=O)Nc2ccc(F)nc2)CCCN1c1nc(Nc2cc(C3CC3)n[nH]2)c2cccn2n1 (max concentration tested 10000 nM)  % inhibition                 96.7%
2  CC(=O)N(O)CCCCCNC(=O)CCC(=O)N(O)CCCCCNC(=O)CCC(=O)N(O)CCCCCN [Deferoxamine aq] (max concentration tested 10000 nM)  % inhibition                 64.9%

Would you kindly look at the next entry?
Q: Any idea what its % inhibition is? The compound is Cn1cnc(-c2cc3nccc(Oc4ccc(NC(=S)NC(=O)Cc5ccccc5)cc4F)c3s2)c1 [MGCD-265] (max concentration tested 10000 nM)
A: 21.3%
